- testedTarget: DLG2_2, Q15700
- Sequence (Q15700 189-283): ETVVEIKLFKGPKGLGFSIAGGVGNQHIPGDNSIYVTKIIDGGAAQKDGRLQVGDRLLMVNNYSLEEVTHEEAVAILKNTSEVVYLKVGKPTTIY
- measurementNotes: holdup assay
- Design: key: below the threshold = too weak to quantify, mostly under pKd 3.1 to 4
- testParameters: plain residues with an end cap or a label only (N-terminal biotin on a linker: ado-ado)
Where pKd equals or exceeds 4, the correct label is MET; where it does not, the label is NOT MET.

>>> label("KLQNPNQSVV [TYRP1, P17643]")
"NOT MET"

Req: In plain terms: is recorded pKd at least 4 for AHGSTRDQSI [KCNB1, Q14721] ?
Resp: NOT MET

Req: In plain terms: is recorded pKd at least 4 for IKLETKKTKL [SLC15A2, Q16348] ?
Resp: NOT MET

Req: In plain terms: is recorded pKd at least 4 for YAEKRMLTEV [KCNA6, P17658] ?
Resp: MET

Req: In plain terms: is recorded pKd at least 4 for TNSKQGETTV [FZD1, Q9UP38] ?
Resp: MET

Req: In plain terms: is recorded pKd at least 4 for RGKNRRQSIF [CDK18, Q07002] ?
Resp: NOT MET

Attribution: paper PMC9482650
